The measured values listed here are drawn from ChEMBL document CHEMBL1133465.

- ASSAYED_TARGET: Kappa-type opioid receptor (Homo sapiens)
- Sequence (P41145 whole entry): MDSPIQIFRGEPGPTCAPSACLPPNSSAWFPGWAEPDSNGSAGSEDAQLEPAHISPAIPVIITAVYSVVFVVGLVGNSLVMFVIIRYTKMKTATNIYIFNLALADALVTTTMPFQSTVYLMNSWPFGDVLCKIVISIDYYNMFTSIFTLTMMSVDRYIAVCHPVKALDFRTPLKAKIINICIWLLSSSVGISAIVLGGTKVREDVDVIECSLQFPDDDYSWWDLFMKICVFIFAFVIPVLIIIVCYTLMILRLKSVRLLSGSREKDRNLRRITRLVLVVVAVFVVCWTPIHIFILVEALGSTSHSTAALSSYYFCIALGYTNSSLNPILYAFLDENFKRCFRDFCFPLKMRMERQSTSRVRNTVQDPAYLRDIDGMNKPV
- ASSAY_NAME: Binding affinity towards cloned human Opioid receptor kappa 1 in CHO cell membranes.
- Format: cell-based
For each record, write down the corresponding Ki.

Here's what some known entries look like.
1) CC[C@H](C)[C@H](NC(=O)[C@H](CCCN=C(N)N)NC(=O)[C@H](CCCN=C(N)N)NC(=O)[C@H](CC(C)C)NC(=O)[C@H](Cc1ccccc1)NC(=O)CNC(=O)[C@H]1CCCN1C(=O)[C@@H](N)Cc1ccc(O)cc1)C(=O)N[C@@H](CCCN=C(N)N)C(=O)N1CCC[C@H]1C(=O)N[C@@H](CCCCN)C(N)=O = 65 nM
2) CC[C@H](C)[C@H](NC(=O)[C@H](CCCN=C(N)N)NC(=O)[C@H](CCCN=C(N)N)NC(=O)[C@H](CC(C)C)NC(=O)[C@H](Cc1ccccc1)NC(=O)CNC(=O)CNC(=O)[C@@H](N)Cc1ccc(O)cc1)C(=O)N[C@@H](CCCN=C(N)N)C(=O)N1CCC[C@H]1C(=O)N[C@@H](CCCCN)C(N)=O = 0.074 nM
3) CC[C@H](C)[C@H](NC(=O)[C@H](CCCN=C(N)N)NC(=O)[C@H](CCCN=C(N)N)NC(=O)[C@H](CC(C)C)NC(=O)[C@H](Cc1ccccc1)NC(=O)[C@H]1CCCN1C(=O)CNC(=O)[C@@H](N)Cc1ccc(O)cc1)C(=O)N[C@@H](CCCN=C(N)N)C(=O)N1CCC[C@H]1C(=O)N[C@@H](CCCCN)C(N)=O = 160 nM

Entry CC[C@H](C)[C@H](NC(=O)[C@H](CCCNC(=N)N)NC(=O)[C@H](CCCNC(=N)N)NC(=O)[C@H](CC(C)C)NC(=O)[C@H](Cc1ccccc1)NC(=O)CNC(=O)[C@@H]1CCCN1C(=O)[C@@H](N)Cc1ccc(O)cc1)C(=O)N[C@@H](CCCNC(=N)N)C(=O)N1CCC[C@H]1C(=O)N[C@@H](CCCCN)C(N)=O , Ki reported as 94 nM
